These measurements were taken from ChEMBL document CHEMBL1140506.

Biological target: UniProt:P56524
Sequence (P56524 whole entry): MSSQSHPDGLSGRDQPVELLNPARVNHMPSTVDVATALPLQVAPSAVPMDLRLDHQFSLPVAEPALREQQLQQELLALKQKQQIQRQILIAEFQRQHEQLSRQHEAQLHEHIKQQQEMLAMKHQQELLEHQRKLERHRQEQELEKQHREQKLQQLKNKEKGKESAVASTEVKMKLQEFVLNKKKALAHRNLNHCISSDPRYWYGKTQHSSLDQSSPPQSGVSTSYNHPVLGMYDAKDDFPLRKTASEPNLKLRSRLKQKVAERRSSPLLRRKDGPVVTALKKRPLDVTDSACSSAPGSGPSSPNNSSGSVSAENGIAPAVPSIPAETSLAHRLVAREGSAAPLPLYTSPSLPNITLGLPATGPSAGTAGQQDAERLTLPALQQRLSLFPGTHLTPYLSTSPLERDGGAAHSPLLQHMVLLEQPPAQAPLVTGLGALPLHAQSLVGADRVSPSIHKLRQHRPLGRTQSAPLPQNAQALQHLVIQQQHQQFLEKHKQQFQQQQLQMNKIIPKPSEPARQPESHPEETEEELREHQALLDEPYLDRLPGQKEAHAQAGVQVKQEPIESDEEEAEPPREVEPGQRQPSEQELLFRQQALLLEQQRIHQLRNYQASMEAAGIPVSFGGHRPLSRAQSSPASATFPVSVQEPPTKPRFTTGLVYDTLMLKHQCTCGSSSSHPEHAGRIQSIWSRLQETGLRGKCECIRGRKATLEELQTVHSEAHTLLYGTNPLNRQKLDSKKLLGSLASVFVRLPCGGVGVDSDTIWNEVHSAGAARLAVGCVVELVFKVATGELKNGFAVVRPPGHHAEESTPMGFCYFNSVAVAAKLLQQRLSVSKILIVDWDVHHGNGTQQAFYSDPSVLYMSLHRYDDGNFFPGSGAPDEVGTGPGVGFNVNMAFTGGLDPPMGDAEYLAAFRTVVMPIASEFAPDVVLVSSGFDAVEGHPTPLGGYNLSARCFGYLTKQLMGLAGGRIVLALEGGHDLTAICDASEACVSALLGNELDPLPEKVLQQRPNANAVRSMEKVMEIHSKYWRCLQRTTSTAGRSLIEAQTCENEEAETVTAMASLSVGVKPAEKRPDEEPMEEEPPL
Test: Inhibition of human HDAC4 expressed in 293T cells
pIC50: −log10 of the molar value. Non-standard residues stand in square brackets, D forms with d. Residues, ends and D or L forms follow the SMILES beside them. Ahp(7-SS(2-pyridyl)) = N[C@@H](CCCCCSSc1ccccn1)C(=O)O; Aib = CC(C)(N)C(=O)O

{"columns": ["molecule", "pIC50"],
 "data": [
  ["C[C@@H]1NC(=O)[C@](C)(Cc2ccccc2)NC(=O)[C@H](CCCCCSSc2ccccn2)NC(=O)[C@H]2CCCN2C1=O", 8.66],
  ["CC1(C)NC(=O)[C@H](CCCCCSSc2ccccn2)NC(=O)[C@H]2CCCN2C(=O)[C@H](CCCc2ccccc2)NC1=O", 8.57],
  ["CC1(C)NC(=O)[C@H](CCCCCSSc2ccccn2)NC(=O)[C@H]2CCCN2C(=O)[C@H](COCc2ccccc2)NC1=O", 8.80],
  ["C[C@@H]1NC(=O)C2(Cc3ccccc3C2)NC(=O)[C@H](CCCCCSSc2ccccn2)NC(=O)[C@H]2CCCN2C1=O", 8.80],
  ["C[C@@H]1NC(=O)C(C)(C)NC(=O)[C@H](CCCCCSSc2ccccn2)NC(=O)[C@H]2CCCN2C1=O", 8.28],
  ["CC1(C)NC(=O)[C@H](CCCCCSSc2ccccn2)NC(=O)[C@H]2CCCN2C(=O)[C@H](CCc2ccccc2)NC1=O", 8.49],
  ["C[C@@H]1NC(=O)[C@@]2(CCc3ccccc32)NC(=O)[C@H](CCCCCSSc2ccccn2)NC(=O)[C@H]2CCCN2C1=O", 8.62],
  ["C[C@@H]1NC(=O)C(C)(C)NC(=O)[C@H](CCCCCSSc2ccccn2)NC(=O)[C@H]2Cc3ccccc3CN2C1=O", 8.38],
  ["C[C@@H]1NC(=O)[C@@](C)(Cc2ccccc2)NC(=O)[C@H](CCCCCSSc2ccccn2)NC(=O)[C@H]2CCCN2C1=O", 7.15],
  ["C[C@@H]1NC(=O)[C@]2(CCc3ccccc32)NC(=O)[C@H](CCCCCSSc2ccccn2)NC(=O)[C@H]2CCCN2C1=O", 7.60],
  ["CC1(C)NC(=O)[C@H](CCCCCSSc2ccccn2)NC(=O)[C@H]2CCCN2C(=O)[C@H](c2ccccc2)NC1=O", 7.25],
  ["CC1(C)NC(=O)[C@H](CCCCCSSc2ccccn2)NC(=O)[C@H]2CCCN2C(=O)[C@H](Cc2ccccc2)NC1=O (cyclo([Aib]F[dP][Ahp(7-SS(2-pyridyl))]))", 8.74],
  ["CC1(C)NC(=O)[C@H](CCCCCSSc2ccccn2)NC(=O)[C@H]2CCCN2C(=O)[C@H](CO)NC1=O", 8.40]
]}
